- ASSAY_TEXT: Cytotoxicity against rat L6 cells assessed as cell growth inhibition incubated for 6 days by resazurin dye based assay
- Format: toxicity
Readings of EC50 at 6 days for the listed molecules

N=C(N)c1ccc2nc(CCCc3nc4ccc(C(=N)N)cc4s3)sc2c1 | > 160 µM
c1cc2nc(CCc3nc4ccc(C5=NCCCN5)cc4s3)sc2cc1C1=NCCCN1 | > 140 µM
N=C(N)c1ccc2nc(CCc3nc4ccc(C(=N)N)cc4s3)sc2c1 | > 170 µM
c1cc2nc(CCCc3nc4ccc(C5=NCCN5)cc4s3)sc2cc1C1=NCCN1 | > 150 µM
c1cc2nc(CCCCCCc3nc4ccc(C5=NCCCN5)cc4s3)sc2cc1C1=NCCCN1 | > 130 µM

Query string: Consider the molecule shown here: `c1cc2nc(CCCCc3nc4ccc(C5=NCCCN5)cc4s3)sc2cc1C1=NCCCN1` What is its recorded EC50 at 6 days?
Result string: > 130 µM
